system: SEM cells; experiment: cell viability relative to DMSO control; higher = less cytotoxic; settings: RPMI 5 mM glucose + 10% dialyzed FBS; 48 h; 0.0211 µM
experimental readout: cell viability (%)

compound	system	experimental readout	numeric readout
ClC1=CC=C(C=C1)C(C#N)C2=C(Cl)C=C(C=C2Cl)N3\N=C/C(=O)NC3=O (stereo not drawn)	SEM cells	cell viability	100
CCN1CCN(CC1)CC(=O)NC2=CC=C(C3=C2C4=C(S3)C=CC=C4)C5=C6O\C(=C/C(=O)C6=CC=C5)N7CCOCC7	SEM cells	cell viability	116
O=C(O)C1(Cc2cccc(Nc3nccs3)n2)CCC(Oc2cccc(Cl)c2F)CC1 (stereo not drawn)	SEM cells	cell viability	92.6
CC1=C(C)C(=O)C(C(CCCCCC(=O)O)c2ccccc2)=C(C)C1=O (stereo not drawn)	SEM cells	cell viability	69.9
CCN1CCN(c2ccc(Nc3cc(N(C)C(=O)Nc4c(Cl)c(OC)cc(OC)c4Cl)ncn3)cc2)CC1	SEM cells	cell viability	96
CN[C@H]1CCC2=CC(=C(OC)C(=C2C/3=C/C=C(OC)\C(=O)/C=C13)OC)OC	SEM cells	cell viability	17.8
Cc1cnn(C)c1C(=O)Nc1cc(Nc2ccc3c(/C=C/c4ccccn4)n[nH]c3c2)ccc1F	SEM cells	cell viability	124
C[C@](Cc1c[nH]c2ccccc12)(NC(=O)OC1C2CC3CC(C2)CC1C3)C(=O)NC[C@H](NC(=O)CCC(=O)O)c1ccccc1 (stereo partly drawn)	SEM cells	cell viability	126
